assay: A CellTox Green Cytotoxicity Assay to monitor cytotoxicity in HepG2 cells - 16 hour (AID 1224876); conditions: CellTox Green fluorescence; series mostly up to 76.8 µM; note: nearly all actives have a fitted effect of over 45% in size
Results filed as inconclusive are left out. The source made the active and inactive calls. Calls come from the whole dose curve; as a rule, active = well fitted activation curve with a large enough effect in the repeat runs; inconclusive = weak or mixed curves; inactive = flat fitted curve, though single readings scatter.
Log the outcome using a class from active, inactive

Here's what some known entries look like.
>>> answer_label("CN(C)C1CSSSC1")
"inactive"
>>> answer_label("CC(=O)c1ccc(-c2ccccc2)cc1")
"inactive"
>>> answer_label("Nc1ccc(Cc2ccc(N)c(Cl)c2)cc1Cl")
"inactive"

Consider now this further molecule.
## Input For this molecule, state the assay outcome: CCOCn1c(-c2ccc(Cl)cc2)c(C#N)c(Br)c1C(F)(F)F
## Output inactive

---

experiment: qHTS assay to identify small molecule antagonists of the estrogen related receptor signaling pathway with the pleiotropic PPARgamma coactivator (PGC) from Tox21 10K library - cell viability counter screen (AID 1224840); conditions: PGC/ERR reporter cells viability, CellTiter-Fluor, 17.5 h; series mostly up to 92.4 µM; note: nearly all actives have a fitted effect of over 40% in size
Records with an inconclusive call do not appear. The source made the active and inactive calls. The call rests on the fitted dose curve; in most records, active means well fitted cell-killing curve with a large enough effect in the repeat runs (not every such curve was filed as active); inconclusive means weak or mixed curves, or effect the other way; inactive means no such curve, though single readings can be large or run the other way.
Permitted responses: true (active), false (inactive)

Worked cases, answers included:
>>> answer_label("O=[N+]([O-])c1cc([N+](=O)[O-])c2ccccc2c1")
"false"
>>> answer_label("c1ccc2c(c1)[nH]c1cnccc12")
"false"
>>> answer_label("N#CCCSCCC#N")
"false"

Next up:
## Input Per the assay record, what outcome was assigned to CCOCn1c(-c2ccc(Cl)cc2)c(C#N)c(Br)c1C(F)(F)F ?
## Output true

---

target: Thyrotropin-releasing hormone receptor (Homo sapiens); experiment: qHTS assay to identify small molecule agonists of the thyrotropin-releasing hormone receptor (TRHR) signaling pathway (AID 1346891); conditions: TRHR-HEK293 calcium fluorescence, agonist mode; series mostly up to 57.6 µM;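 note: HEK293 cells expressing TRHR with calcium dye readout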
Active and inactive are the calls of the source. Calls follow the shape of the full dose curve.
readout: outcome

Observe how each entry below is paired with its result.
>>> meas_value("Cc1cc(C(C)(C)c2cc(C)c(O)c(C)c2)cc(C)c1O")
"inactive"
>>> meas_value("NNC(=O)c1ccccc1")
"inactive"
>>> meas_value("CN(C)[C@@H]1C(=O)C(C(N)=O)=C(O)[C@@]2(O)C(=O)C3=C(O)c4c(O)ccc(Cl)c4[C@@](C)(O)[C@H]3C[C@@H]12")
"inactive"
>>> meas_value("CCCCCCCCCC[N+](C)(C)CCCCCCCCCC")
"inactive"
>>> meas_value("COc1ccc(N)cc1N")
"inactive"

outcome in this record for CCS(=O)(=O)c1cccnc1S(=O)(=O)NC(=O)Nc1nc(OC)cc(OC)n1 : inactive

The compound listed as COc1cc(C=O)cc2c1[C@H](COC(N)=O)[C@]1(OC(C)=O)ON2C[C@H]2[C@@H]1N2C(C)=O shows outcome equal to inactive

For reference, reported outcome for c1ccc2c(c1)OCC(C1=NCCN1)O2 (configuration not stated) stands at inactive

---

experiment: qHTS assay for identifying genotoxic compounds that show differential cytotoxicity against isogenic chicken DT40 cell lines with known DNA damage response pathways - Rev3 mutant cell line (AID 743014); conditions: chicken DT40 Rev3-/- viability, CellTiter-Glo, 40 h; series mostly up to 68.4 µM; note: nearly all actives have a fitted effect of over 55% in size
Results filed as inconclusive are left out. The source made the active and inactive calls. The call rests on the fitted dose curve; in most records, active means well fitted cell-killing curve with a large enough effect in the repeat runs; inconclusive means weak or mixed curves, or effect the other way; inactive means no such curve, though single readings can be large or run the other way.
Parameter call: string, one of y = active, n = inactive

// below: answered molecules
>>> answer_label("CC1(C)C(/C=C(\\Cl)C(F)(F)F)C1C(=O)OC(C#N)c1cccc(Oc2ccccc2)c1 (stereo not drawn)")
"n"
>>> answer_label("N#CCCC(Br)(C#N)CBr (stereo not drawn)")
"y"
>>> answer_label("FC(Cl)(Cl)Cl")
"n"
>>> answer_label("CCCCCCCCCCCCCCCCCCn1cc[n+](C)c1")
"y"

Please look at the following molecule next.
## Input # outcome recorded in this test, key = CCOCCOC(C)=O
## Output n
